The reported measurements were obtained from PubChem BioAssay (NCATS).

- Assay Details: Drug repurposing screens with cells derived from glioblastoma tumor samples (AID 1345199); further: potency means the concentration at half of the fitted maximal effect; nearly all actives have a fitted effect of over 40% in size
- Experimental Context: GBM patient neurospheres viability, ATP luminescence, 48 h; tumour line A
Records with an inconclusive call do not appear. Calls of active or inactive are those of the source. The call rests on the fitted dose curve; in most records, active means well fitted inhibition curve with a large enough effect; inconclusive means small, poorly fitted or top-dose-only effect; inactive means flat fitted curve, though single readings scatter.
Endpoint Label: Potency

// Potency lookup, key: COc1ccc(CN(CCN(C)C)c2ccccn2)cc1 35.5 µM (active)

Using the record for CN(C)CC[C@@H](c1ccc(Br)cc1)c1ccccn1 , report its Potency. 11.2 µM (active)

Which Potency reading was recorded for the molecule CN(C)C/C=C(/c1ccc(Br)cc1)c1cccnc1 ? 31.6 µM (active)

// returns reported Potency for input CC(C)(C)c1ccc(C(=O)CCCN2CCC(OC(c3ccccc3)c3ccccc3)CC2)cc1 2.51 µM (active)

# lookup: Potency of NC1=NCC2c3ccccc3Cc3ccccc3N12 (stereo unspecified) 12.6 µM (active)

Which measured Potency value corresponds to CN(C)CCN(Cc1cccs1)c1ccccn1 ? 8.91 µM (active)

Would you kindly share the measured Potency for CCCN1C[C@H](CSC)C[C@@H]2c3cccc4[nH]cc(c34)C[C@H]21 ? 7.94 µM (active)

GET /values?readout=Potency&item= CN(C)CCCN1c2ccccc2Sc2ccccc21 12.6 µM (active)

For Cc1cc(C)c(/C=C2\C(=O)Nc3ccccc32)[nH]1 , what is its reported Potency? 31.6 µM (active)

Give its Potency value. Item: CN(C(=O)CCCOc1ccc2[nH]c(=O)ccc2c1)C1CCCCC1 11.2 µM (active)

Would you mind telling me what Potency value was observed for CCN(CC)CCOCCOC(=O)C1(c2ccccc2)CCCC1 ? 2.24 µM (active)

Reported Potency, molecule Cc1ccc(/C(=C\CN2CCCC2)c2ccccn2)cc1 : ____ 17.8 µM (active)

Would you mind telling me what Potency value was observed for Cc1nc2ccccn2c(=O)c1CCN1CCC(C(=O)c2ccc(F)cc2)CC1 ? 6.31 µM (active)

I'd like to know its Potency. The molecule in question is COC(=O)[C@H]1[C@H]2C[C@@H]3c4[nH]c5cc(OC)ccc5c4CCN3C[C@H]2C[C@@H](OC(=O)c2cc(OC)c(OC)c(OC)c2)[C@@H]1OC 5.01 µM (active)

Suppose we examine the molecule COC(=O)C1=C(C)NC(C)=C(C(=O)OC(C)(C)CN(C)CCC(c2ccccc2)c2ccccc2)C1c1cccc([N+](=O)[O-])c1 (stereo unspecified) ; what Potency value has been reported? 2 µM (active)

What does the record list as Potency for CCOC(=O)C1=C(C)NC(C)=C(C(=O)OC)C1c1cccc([N+](=O)[O-])c1 (stereo unspecified) ? 11.2 µM (active)

###

- Tested on: DFO2036
- Assay Details: qHTS profiling for inhibitors of Plasmodium falciparum proliferation (AID 504749); further: nearly all actives have a fitted effect of over 60% in size
- Experimental Context: P. falciparum in erythrocytes, SYBR Green DNA, 72 h; series mostly up to 28.7 µM
Records with an inconclusive call do not appear. Active and inactive are the calls of the source. Calls follow the shape of the dose curve; as a rule, active = well fitted inhibition curve with a large enough effect; inconclusive = small, poorly fitted or top-dose-only effect; inactive = flat fitted curve, though single readings scatter.
// classify into active, inactive

Recorded test call requested for O=C(CCNNC(=O)c1ccncc1)NCc1ccccc1 inactive

Hi, do you know how OCCN1CCN(CCCN2c3ccccc3C=Cc3ccccc32)CC1 came out in this test? active

Which outcome was assigned to CCN1CCc2nc(N)oc2CC1 in this test? inactive

Hello, I am checking results. What call was entered for C[N+](C)(C)CCCCCCCCCC[N+](C)(C)C ? active

Outcome logged for CCN1CCC[C@H]1CNC(=O)c1c(O)c(Cl)cc(Cl)c1OC in this assay: inactive

Each molecule tested received a call. Report the one for CNC1(C)C2CCC(C2)C1(C)C (stereo not given) . inactive

What did this assay record as the result for Cc1ccc(Cl)c(Nc2ccccc2C(=O)O)c1Cl ? inactive

// param item: CCCN1C[C@H](CSC)C[C@@H]2c3cccc4[nH]cc(c34)C[C@H]21 ; yields the recorded call inactive

For CN(C)C(=O)Oc1ccc[n+](C)c1 , what call appears in the results of this test? inactive

Record lookup: outcome of this test for CN1CCN(CC(=O)N2c3ccccc3C(=O)Nc3cccnc32)CC1 ? inactive

Entry CN(C)C/C=C(/c1ccc(Br)cc1)c1cccnc1 : call = ? inactive

Assay result, entry C#CCN(C)CCCOc1ccc(Cl)cc1Cl — outcome? inactive

Called result for O=C1CC2(CCCC2)CC(=O)N1CCCCN1CCN(c2ncccn2)CC1 inactive

Give the logged outcome of this assay for the following molecule: CCCCNC(=O)NS(=O)(=O)c1ccc(C)cc1 inactive

Please share the test call associated with CC(N=C(NC#N)Nc1ccncc1)C(C)(C)C (stereo not given) . inactive

Outcome? FC(F)(F)c1ccccc1-n1ccnc1 inactive

How did this test come out for O=C(CCCN1CCC(O)(c2cccc(C(F)(F)F)c2)CC1)c1ccc(F)cc1 ? active

Record request — test call for CCCCNc1c(C(=O)OCC)c(C)nc2c1cnn2CC inactive

// return assay outcome for CSc1ccc(C(=O)c2[nH]c(=O)[nH]c2C)cc1 inactive

# outcome recorded in this test, key = CCCOc1ccccc1-c1nc2n[nH]nc2c(=O)[nH]1 inactive

For this molecule, state the assay outcome: CCN(CC)CCNC(=O)c1cc(S(C)(=O)=O)ccc1OC inactive

I'd appreciate the recorded outcome for NC(N)=NC(=O)Cc1c(Cl)cccc1Cl from this test. active

What is the recorded call for this molecule in the test? COC(=O)C1=C(C)NC(C)=C(C(=O)OC(C)(C)CN(C)CCC(c2ccccc2)c2ccccc2)C1c1cccc([N+](=O)[O-])c1 (stereo not given) active

Would you mind telling me which call this test gave O=C(O)CCCCCCCC(=O)O ? inactive

Recorded call for O=C(O)CN(CCOCCOCCN(CC(=O)O)CC(=O)O)CC(=O)O ? inactive

State the result this test recorded for Nc1c2c(nc3ccccc13)CCCC2O (stereo not given) . inactive

Per the assay record, what outcome was assigned to NC(Cc1ccc(Cl)cc1)C(=O)O (stereo not given) ? inactive

Tell me the assay call for COc1cc2c(cc1OC)-c1cc(=Nc3c(C)cc(C)cc3C)n(C)c(=O)n1CC2 please. active

What outcome does the record of this test show for O=C(O)CP(=O)(O)O ? inactive

Tell me the recorded outcome of this test for CCn1cc(C(=O)O)c(=O)c2cc3c(cc21)OCO3 . inactive

State the result this test recorded for CN(C)CC[C@@H](c1ccc(Br)cc1)c1ccccn1 . inactive

Test call, this molecule: CCNC(=O)N1CCN(CCCC(c2ccc(F)cc2)c2ccc(F)cc2)CC1 active

Called result for CC(=O)Oc1cc(C(C)C)c(OCCN(C)C)cc1C inactive

Called result for CN(C)C(=O)Oc1cccc([N+](C)(C)C)c1 inactive

Which outcome was entered for the molecule CCN(CC)CC(=O)Nc1c(C)cccc1C in this test? inactive

State the result this test recorded for COC(=O)[C@@H](N)Cc1ccc(O)c(O)c1 . inactive

Test call, this molecule: CN(C)CC/C=C1\c2ccccc2COc2ccccc21 inactive

// outcome(item) with item = CC(=O)OCC1=C(C(=O)O)N2C(=O)[C@@H](NC(=O)Cc3cccs3)[C@H]2SC1 inactive

Can you look up the reported call for CCN(Cc1ccncc1)C(=O)C(CO)c1ccccc1 (stereo not given) for me? inactive

Assay result, entry CCn1ccnc1CC1COc2ccccc2O1 (stereo not given) — outcome? inactive

Any idea what this test logged for CC1=NS(=O)(=O)c2cc(Cl)ccc2N1 ? inactive

Record lookup: outcome of this test for CCO/C([O-])=N/c1c[n+](N2CCOCC2)no1 ? inactive

Would you mind telling me which call this test gave NC(=O)c1ncn([C@@H]2O[C@H](CO)[C@@H](O)[C@H]2O)c1O ? inactive

Hi, do you know how Cc1nc2c([nH]1)c(=O)n(C)c(=O)n2Cc1ccco1 came out in this test? inactive

Assay result, entry C[C@]12CCC(=O)C=C1CC[C@@H]1[C@@H]2CC[C@@]2(C)[C@H]1CC[C@]2(O)C(=O)CO — outcome? inactive

Any idea what this test logged for C[N+](C)(C)CCOC(N)=O ? inactive

Record lookup: outcome of this test for COc1ccc([C@@H]2Sc3ccccc3N(CCN(C)C)C(=O)[C@@H]2OC(C)=O)cc1 ? inactive

Each molecule tested received a call. Report the one for CN=C(NC#N)NCCSCc1nc[nH]c1C . inactive

Any idea what this test logged for CCN(CC)CCCN(c1ccccc1)C1Cc2ccccc2C1 ? active

// return assay outcome for C[n+]1cc2c3c(ccc2c2ccc4cc5c(cc4c21)OCO5)OCO3 inactive
